# tgt: GST-CIB1 : F-scrambled peptide (Homo sapiens)
# Construct: made in house; host or cells: BL-21 plus RIL cells (E. coli)
# Sequence (Q99828 1-191): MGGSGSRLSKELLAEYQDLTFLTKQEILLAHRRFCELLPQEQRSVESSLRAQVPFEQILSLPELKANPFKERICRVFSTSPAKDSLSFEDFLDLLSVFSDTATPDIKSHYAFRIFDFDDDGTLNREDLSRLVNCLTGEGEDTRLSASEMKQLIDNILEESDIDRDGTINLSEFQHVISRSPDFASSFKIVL
# experimental.protocol: FP scrambled-peptide counter screen, 1536-well format
# Format: binding
# test.parameters: Table S3, counterscreen; negative = inhibition
Decide by Efficacy (%) (counterscreen): equal to or exceeding -40% means rule met, less means rule not met.

OCc1ccc(-c2ccc(-c3ccc(CO)s3)o2)s1 [NCGC00159570-01]    rule met
CC(C)c1ccc(NC(=S)N/N=C2\C(=O)Nc3ccccc32)cc1.O=C(O)C(F)(F)F [NCGC00242646-01]    rule met
O=C(NNC(=O)c1nc2ccccc2[nH]1)OCc1ccccc1 [NCGC00181216-01]    rule met
Cc1ccc2c(c1)/C(=C\C(=O)c1cccs1)C(=O)N2.O=C(O)C(F)(F)F [NCGC00479180-01]    rule not met
Cc1ccc(S(=O)(=O)Nc2cc3c(cc2C(=O)Nc2nc(-c4ccccc4)cs2)OCO3)cc1.O=C(O)C(F)(F)F [NCGC00263702-01]    rule met

Prompt: Could you tell me if the measured Efficacy (%) (counterscreen) of CC(=O)NC(Cc1ccccc1)C(=O)O (centres unmarked) [NCGC00042134-05] reaches -40% or more?
Response: rule met

Prompt: Could you tell me if the measured Efficacy (%) (counterscreen) of N#Cc1ccc(NS(=O)(=O)c2ccc(NC(=O)Cc3ccc(F)c(Cl)c3)cc2)cc1.O=C(O)C(F)(F)F [NCGC00343891-01] reaches -40% or more?
Response: rule met

Prompt: Could you tell me if the measured Efficacy (%) (counterscreen) of Cc1ccccc1NC(=O)CN1C(=O)N/C(=C\c2cn(-c3cccc(C(=O)O)c3)cn2)C1=O [NCGC00182400-01] reaches -40% or more?
Response: rule met

Prompt: Could you tell me if the measured Efficacy (%) (counterscreen) of Cn1cnc(-c2nccc3c(O)nc(OCCCC(F)(F)F)nc23)c1.O=C(O)C(F)(F)F [NCGC00381768-02] reaches -40% or more?
Response: rule met

Prompt: Could you tell me if the measured Efficacy (%) (counterscreen) of O=C(O)C(F)(F)F.O=C1Nc2ccccc2/C1=N/NC(=S)Nc1ccc(C(=O)O)cc1 [NCGC00229530-01] reaches -40% or more?
Response: rule not met
